System: MDA-MB-468 multi-cell spheroids, viability
Measurement protocol: Anticancer human tumor MDA-MB-468 cell line growth inhibition [IpAb];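 further: spheroids exposed to agents for seven days; 100% = DMSO vehicle control viability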
Run conditions: second compound 0.1 µM; first compound 0.0949 µM; stronger effect = lower value
Method: Combinatorial screen of targeted agents with ipatasertib and abemaciclib in multi-cell type tumor spheroids […] Compounds. […] If the clinical Cmax for an agent had not been determined, the highest concentration tested was 10 microM. NCI60 Cell Culture. […] The optimal seeding densities for each of the cell lines at each time point assessed were determined prior to performing the concentration response studies. […]
# key: entry, value: viability, T/C

>  <Molecule>
CC(C)(C)c1cnc(CSc2cnc(NC(=O)C3CCNCC3)s2)o1 + CCN1CCN(Cc2ccc(Nc3ncc(F)c(-c4cc(F)c5nc(C)n(C(C)C)c5c4)n3)nc2)CC1

>  <Unit tag>
%

>  <viability, T/C>
59.9

$$$$
>  <Molecule>
CC(C)(C)c1cnc(CSc2cnc(NC(=O)C3CCNCC3)s2)o1 + CC(C)NCC(C(=O)N1CCN(c2ncnc3c2C(C)CC3O)CC1)c1ccc(Cl)cc1

>  <Unit tag>
%

>  <viability, T/C>
35

$$$$
>  <Molecule>
CC(=O)c1c(C)c2cnc(Nc3ccc(N4CCNCC4)cn3)nc2n(C2CCCC2)c1=O + CCN1CCN(Cc2ccc(Nc3ncc(F)c(-c4cc(F)c5nc(C)n(C(C)C)c5c4)n3)nc2)CC1

>  <Unit tag>
%

>  <viability, T/C>
85.3

$$$$

###

Tested on: MDA-MB-468 multi-cell spheroids, viability
Measurement protocol: Anticancer human tumor MDA-MB-468 cell line growth inhibition [IpAb];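 further: spheroids exposed to agents for seven days; 100% = DMSO vehicle control viability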
Run conditions: second compound 0.316 µM; first compound 10 µM; stronger effect = lower value

>  <Molecule>
CCCS(=O)(=O)Nc1ccc(F)c(C(=O)c2c[nH]c3ncc(-c4ccc(Cl)cc4)cc23)c1F + CC(C)NCC(C(=O)N1CCN(c2ncnc3c2C(C)CC3O)CC1)c1ccc(Cl)cc1

>  <viability, T/C>
39.3%

$$$$
>  <Molecule>
CCCS(=O)(=O)Nc1ccc(F)c(C(=O)c2c[nH]c3ncc(-c4ccc(Cl)cc4)cc23)c1F + CCN1CCN(Cc2ccc(Nc3ncc(F)c(-c4cc(F)c5nc(C)n(C(C)C)c5c4)n3)nc2)CC1

>  <viability, T/C>
64.1%

$$$$
>  <Molecule>
Cc1nc(NC(=O)N2CCCC2C(N)=O)sc1-c1ccnc(C(C)(C)C(F)(F)F)c1 (stereo not drawn) + CC(C)NCC(C(=O)N1CCN(c2ncnc3c2C(C)CC3O)CC1)c1ccc(Cl)cc1

>  <viability, T/C>
16.3%

$$$$

###

System: MDA-MB-468 multi-cell spheroids, viability
Measurement protocol: Anticancer human tumor MDA-MB-468 cell line growth inhibition [IpAb];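 further: spheroids exposed to agents for seven days; 100% = DMSO vehicle control viability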
Run conditions: second compound 0.01 µM; first compound 0.316 µM; stronger effect = lower value
# if measured viability, T/C < 90%: Y  # else: N

>  <Molecule>
Cc1nc(NC(=O)N2CCCC2C(N)=O)sc1-c1ccnc(C(C)(C)C(F)(F)F)c1 (stereo not given) + CCN1CCN(Cc2ccc(Nc3ncc(F)c(-c4cc(F)c5nc(C)n(C(C)C)c5c4)n3)nc2)CC1

>  <Class label>
N

$$$$
>  <Molecule>
Cn1nccc1Nc1nccc(-c2ccn(C(CO)c3ccc(Cl)c(F)c3)c(=O)c2)n1 (stereo not given) + CCN1CCN(Cc2ccc(Nc3ncc(F)c(-c4cc(F)c5nc(C)n(C(C)C)c5c4)n3)nc2)CC1

>  <Class label>
Y

$$$$
>  <Molecule>
Cn1ncc(Cl)c1-c1cc(C(=O)NC(CN)Cc2cccc(F)c2)sc1Cl (stereo not given) + CCN1CCN(Cc2ccc(Nc3ncc(F)c(-c4cc(F)c5nc(C)n(C(C)C)c5c4)n3)nc2)CC1

>  <Class label>
Y

$$$$
>  <Molecule>
CCCS(=O)(=O)Nc1ccc(F)c(C(=O)c2c[nH]c3ncc(-c4ccc(Cl)cc4)cc23)c1F + CCN1CCN(Cc2ccc(Nc3ncc(F)c(-c4cc(F)c5nc(C)n(C(C)C)c5c4)n3)nc2)CC1

>  <Class label>
N

$$$$
>  <Molecule>
COc1c(OCCCN2CCOCC2)ccc2c3n(c(=NC(=O)c4cnc(N)nc4)nc12)CCN3 + CCN1CCN(Cc2ccc(Nc3ncc(F)c(-c4cc(F)c5nc(C)n(C(C)C)c5c4)n3)nc2)CC1

>  <Class label>
Y

$$$$
